Values were extracted from patent US10988455B2.

subjectOfTest: human adenosine A1 receptor (Homo sapiens (Human), UniProt P30542)
Sequence (P30542 whole entry): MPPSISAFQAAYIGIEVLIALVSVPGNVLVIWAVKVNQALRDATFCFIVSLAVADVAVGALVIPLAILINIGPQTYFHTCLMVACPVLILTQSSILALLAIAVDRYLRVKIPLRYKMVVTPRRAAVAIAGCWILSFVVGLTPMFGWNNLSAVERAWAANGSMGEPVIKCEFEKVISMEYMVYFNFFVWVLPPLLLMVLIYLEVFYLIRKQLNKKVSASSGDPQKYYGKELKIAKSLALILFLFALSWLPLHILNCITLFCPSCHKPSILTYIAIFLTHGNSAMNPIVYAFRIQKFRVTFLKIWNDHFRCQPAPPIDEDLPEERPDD
assayNotes: CHO-hA1 [3H]DPCPX binding assay (Test A)
measurementSetup: CHO membranes, 1 nM [3H]DPCPX, 25° C., 1 h
Class definitions on pKi A1: range A = under 7, range B = from 7 up to 8, range C = 8 and over

Please review the entries below; each comes with its answer.
Classify this molecule: Nc1nnc(-c2cnn(Cc3ccccc3)c2)c(-c2ccccc2)n1 [1(cxxxiv)]
range B

Classify this molecule: Cc1cc(-c2nnc(N)nc2-c2ccccc2)cc(Cl)n1 [1(lvi)]
range B

***
Classify this molecule: Nc1nnc(-c2cc(Cl)cc(Cl)c2)c(-c2ccccn2)n1 [1(cciv)]
range A

Classify this molecule: Nc1nnc(-c2cc(Cl)cc(C(F)(F)F)c2)c(-c2ncccn2)n1 [1(ccxviii)]
range A

Classify this molecule: Cc1cc(-c2nnc(N)nc2-c2ccccc2)cc(Br)n1 [1(ccxii)]
range B

Classify this molecule: Nc1nnc(-c2ccc3ccccc3c2)c(-c2ccccc2)n1 [1(lxxii)]
range C

Classify this molecule: Cc1cc(-c2nnc(N)nc2-c2ccccc2)cc(C(F)(F)F)n1 [Example 1(ccix)]
range B

Classify this molecule: Nc1nnc(-c2ccnc(Cl)c2)c(-c2ccccc2)n1 [1(xliii)]
range C

Classify this molecule: CC1(C)C=C(c2nnc(N)nc2-c2ccccc2)CC(C)(C)O1 [1(lxxx)]
range A

Classify this molecule: Cn1nc(C(F)(F)F)cc1Oc1nnc(N)nc1-c1ccccc1 [3(xxiv)]
range C

---

subjectOfTest: human adenosine A2a receptor (Homo sapiens (Human), UniProt P29274)
Sequence (P29274 whole entry): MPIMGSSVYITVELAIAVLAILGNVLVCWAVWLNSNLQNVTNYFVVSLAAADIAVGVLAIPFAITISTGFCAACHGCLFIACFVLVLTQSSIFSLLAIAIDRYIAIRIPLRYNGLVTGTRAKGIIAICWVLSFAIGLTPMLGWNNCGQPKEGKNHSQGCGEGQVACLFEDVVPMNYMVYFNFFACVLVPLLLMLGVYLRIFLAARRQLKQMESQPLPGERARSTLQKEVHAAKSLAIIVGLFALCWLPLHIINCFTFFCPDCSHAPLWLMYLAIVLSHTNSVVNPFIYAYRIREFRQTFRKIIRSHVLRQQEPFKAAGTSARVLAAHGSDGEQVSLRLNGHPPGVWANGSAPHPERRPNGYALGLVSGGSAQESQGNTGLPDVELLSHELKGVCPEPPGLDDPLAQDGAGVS
assayNotes: HEK293-hA2a [3H]-ZM241385 binding assay (Test A)
measurementSetup: HEK293 membranes, 1 nM [3H]ZM241385, 25° C., 1 h
Class definitions on pKi A2a: low group = under 7, middle group = from 7 up to 8, high group = 8 and over

Classify this compound: CC1(C)CCCN(c2nnc(N)nc2-c2ccccc2)C1 [2(vi)]
middle group

Classify this compound: Nc1nnc(Oc2cccc(C(F)(F)F)c2)c(-c2ccccc2)n1 [3(v)]
low group

Classify this compound: Nc1nnc(-c2cc(Cl)nc(C(F)(F)F)c2)c(-c2ccc(F)cc2)n1 [1(clxix)]
high group

Classify this compound: Nc1nnc(-c2ccnc(Cl)c2)c(-c2ccccc2)n1 [1(xliii)]
middle group

Classify this compound: Cc1cc(-c2nnc(N)nc2-c2ccccc2)cc(Br)n1 [1(ccxii)]
high group

Classify this compound: Cc1cc(Cl)cc(-c2nnc(N)nc2-c2ccccc2)c1 [1(li)]
high group

***
Classify this compound: Nc1nnc(N2CCOC(CO)C2)c(-c2ccccc2)n1 (stereo not shown) [2(xxv)]
low group

Classify this compound: Cc1ncccc1Oc1nnc(N)nc1-c1ccccc1 [3(xxi)]
low group

---

subjectOfTest: human adenosine A2a receptor (Homo sapiens (Human))
assayNotes: HEK293-hA2a [3H]-ZM241385 binding assay (Test A)
measurementSetup: HEK293 membranes, 1 nM [3H]ZM241385, 25° C., 1 h
Property: pKi A2a; scope: individual compounds
Give a plain numeric answer without units written out.

Solved cases below.
Fill in: pKi A2a of `Nc1nnc(-c2ccnc(C3CC3)c2)c(-c2ccccc2)n1` is ___
7.45

Fill in: pKi A2a of `Cc1csc(Nc2nnc(N)nc2-c2ccccc2)n1` is ___
5.07

Fill in: pKi A2a of `Cc1cn(-c2nnc(N)nc2-c2ccccc2)cc(C)c1=O` is ___
7.77

Next item in the queue.
Fill in: pKi A2a of `CC(=O)Nc1cc(-c2nnc(N)nc2-c2ccccc2)ccc1O` is ___
6.73
